Provide the reported MIC of each item.
# Tested on: Pseudomonas aeruginosa
# experimentSummary: Antibacterial activity against Pseudomonas aeruginosa QDIO-2 assessed as reduction in microbial growth after 24 hrs by serial dilution method
# Assay type: functional

What value of measured MIC is listed for CO[C@]12C[C@@](C)(O)[C@H]3C[C@@]4(C)CC[C@H]([C@@H](C)/C=C\C=C(C)C)[C@@H]4C/C=C(/CO1)[C@@]32O ?
> 32 µg/mL

What value of measured MIC is listed for CC(C)=CCC[C@H](C)[C@H]1CC[C@]2(C)C[C@@H]3C(C)=CC(=O)[C@H]3/C(CO)=C\C[C@@H]12 ?
> 32 µg/mL

What value of measured MIC is listed for CC(C)=CCC[C@H](C)[C@H]1CC[C@]2(C)C[C@@H]3C(C)=CC(=O)[C@H]3/C(C=O)=C\C[C@@H]12 ?
> 32 µg/mL

These data points were gathered from ChEMBL document CHEMBL4673368.
